- MEASUREMENT_TARGET: human mTOR (Homo sapiens)
- TEST: Inhibition of mTOR kinase activity, HotSpot assay, phosphorylation of 4EPB1
- SETTINGS: Inhibition of kinase activity (as IC50) mTOR (nM), 10 μM ATP; mean of two replicates; Table 12
REPORTED_PROPERTY: IC50 (nM)

COc1cc(C)c(Nc2cc3c(cn2)n(C)c(=O)n3C2CCOCC2)cn1 [Compound 126] | 12600

(I) Cc1cc2c(cc1Nc1cc3c(cn1)n(C)c(=O)n3C1CCOCC1)OCO2 [Compound 130]
(II) COC1CCC(n2c(=O)n(C)c3cnc(Nc4ccc(Cl)cc4C)cc32)CC1 (stereo not drawn) [Compound 173]
Of I and II , which carries the smaller reported IC50 figure? Indicate which entry you chose by stating its label.
I

(I) Cc1cc2nccnc2cc1Nc1cc2c(cn1)n(C)c(=O)n2C1CCOCC1 [Compound 225]
(II) COc1ccc(-n2c(=O)n(C)c3cnc(Nc4cc(S(C)(=O)=O)ccc4C)cc32)cc1 [Compound 197]
(III) Cc1cc2ncc(C(=O)O)n2cc1Nc1cc2c(cn1)n(C)c(=O)n2C1CCOCC1 [Compound 136]
Hello, I need these entries ordered by IC50, highest reading first. Thanks! I would appreciate it if you listed the labels in the requested order.
I, II, III

###

Entries and their IC50 values follow.
- MEASUREMENT_TARGET: human mTOR (Homo sapiens)
- TEST: Inhibition of mTOR kinase activity, HotSpot assay, phosphorylation of 4EPB1
- SETTINGS: Inhibition of kinase activity (as IC50) mTOR (nM), 10 μM ATP; mean of two replicates; Table 12

Past entries and their recorded results:
COc1ccc(N(C(=O)OCc2ncc([N+](=O)[O-])n2C)c2cc3c(cn2)n(C)c(=O)n3C2CCOCC2)c(C)c1 | > 100000 nM
Cc1nc2ccc(Nc3cc4c(cn3)n(C)c(=O)n4C3CCOCC3)cc2o1 | > 100000 nM
COc1ccc(N(C(=O)OCc2cnc([N+](=O)[O-])n2C)c2cc3c(cn2)n(C)c(=O)n3C2CCCC2)c(C)c1 | > 100000 nM

Provide measured IC50 value, entry: Cc1nc(Cl)ccc1Nc1cc2c(cn1)n(C)c(=O)n2C1CCOCC1
> 100000 nM

# return recorded IC50 for input COc1cnc(Nc2cc3c(cn2)n(C)c(=O)n3C2CCOCC2)c(C)c1
> 100000 nM

Give reported IC50 value for Cc1cc(Cl)ccc1N(C(=O)OCc1cnc([N+](=O)[O-])n1C)c1cc2c(cn1)n(C)c(=O)n2C1CCOCC1
> 100000 nM

Entry COc1ccc(Nc2cc3c(cn2)n(C)c(=O)n3C2CCN(C(=O)OCc3cnc([N+](=O)[O-])n3C)CC2)c(C)c1 needs its IC50 filled in; supply it.
15600 nM

Identify measured IC50 associated with Cc1cc2ncnn2cc1Nc1cc2c(cn1)n(C)c(=O)n2C1CCOCC1
43900 nM

Please supply the value of reported IC50 for the item COc1ccc(N(C(=O)OCc2cnc([N+](=O)[O-])n2C)c2cc3c(cn2)n(C)c(=O)n3C2CCOCC2)c(C)c1
> 100000 nM

Provide one value: measured IC50 of COc1ccc(Nc2cc3c(cn2)n(C)c(=O)n3C2CCOCC2)c(C)n1
> 100000 nM

Fill in reported IC50 for this entry: Cc1ccc(S(C)(=O)=O)cc1Nc1cc2c(cn1)n(C)c(=O)n2C1CCOCC1
> 100000 nM

Please supply the value of reported IC50 for the item COc1ccc(N(C(=O)OCc2cnc([N+](=O)[O-])n2C)c2cc3c(cn2)n(C)c(=O)n3C2CCC(OC)CC2)c(C)c1 (stereo not drawn)
> 100000 nM
